Items are presented alongside their recorded Population Fragmented Nuclei (%).
Tested on: U2OS
protocol.summary: Multiplex assay against U2OS
Format: toxicity, cell-based
protocol.conditions: human, 48 h, 1 µM, compound concentration 1 uM, replicate 2
measurement.type: Population Fragmented Nuclei (%)

>>> observed_result("OC1(c2ccc(Cl)cc2)CCN(Cc2c[nH]c3ccccc23)CC1")
7
>>> observed_result("CN1CCN(c2ccc(OC(F)(F)F)c(Nc3ncc4c(n3)-c3c(c(C(N)=O)nn3CCO)CC4)c2)CC1")
27
>>> observed_result("O=C1NCN(c2ccccc2)C12CCN(CCCOc1ccc(F)cc1)CC2 [SPIRAMIDE]")
8
>>> observed_result("CN(C)C(=O)/C(C#N)=C/c1ccc(-c2nc3cnc4[nH]ccc4c3n2C2CCCCC2)o1")
4
>>> observed_result("CNc1nc(NCc2ccc(NS(C)(=O)=O)cc2Cl)cc(-c2ccccn2)n1")
6
>>> observed_result("CC[C@H](C)C(=O)O[C@H]1C[C@@H](C)C=C2C=C[C@H](C)[C@H](CC[C@@H]3C[C@@H](O)CC(=O)O3)[C@H]21")
10
>>> observed_result("CN(C)C(=O)N[C@H]1CC[C@H](CCN2CCN(c3cccc(Cl)c3Cl)CC2)CC1.Cl [CARIPRAZINE HYDROCHLORIDE]")
6
>>> observed_result("c1cn2cc(-c3ccc4cn[nH]c4c3)nc(Nc3ccc(N4CCOCC4)cc3)c2n1")
11

Measured values drawn from ChEMBL document CHEMBL4689842 for this set.
